Hey, just so you know, these numbers are from patent US20230099293A1.

Target: recombinant human Meningioma Expressed Antigen 5 (MGEA5), also referred to as O-GlcNAcase (OGA) (Homo sapiens, UniProt O60502)
Construct: Full length OGA enzyme was purchased at OriGene (cat #TP322411); purchased OriGene TP322411
Sequence (O60502 1-916): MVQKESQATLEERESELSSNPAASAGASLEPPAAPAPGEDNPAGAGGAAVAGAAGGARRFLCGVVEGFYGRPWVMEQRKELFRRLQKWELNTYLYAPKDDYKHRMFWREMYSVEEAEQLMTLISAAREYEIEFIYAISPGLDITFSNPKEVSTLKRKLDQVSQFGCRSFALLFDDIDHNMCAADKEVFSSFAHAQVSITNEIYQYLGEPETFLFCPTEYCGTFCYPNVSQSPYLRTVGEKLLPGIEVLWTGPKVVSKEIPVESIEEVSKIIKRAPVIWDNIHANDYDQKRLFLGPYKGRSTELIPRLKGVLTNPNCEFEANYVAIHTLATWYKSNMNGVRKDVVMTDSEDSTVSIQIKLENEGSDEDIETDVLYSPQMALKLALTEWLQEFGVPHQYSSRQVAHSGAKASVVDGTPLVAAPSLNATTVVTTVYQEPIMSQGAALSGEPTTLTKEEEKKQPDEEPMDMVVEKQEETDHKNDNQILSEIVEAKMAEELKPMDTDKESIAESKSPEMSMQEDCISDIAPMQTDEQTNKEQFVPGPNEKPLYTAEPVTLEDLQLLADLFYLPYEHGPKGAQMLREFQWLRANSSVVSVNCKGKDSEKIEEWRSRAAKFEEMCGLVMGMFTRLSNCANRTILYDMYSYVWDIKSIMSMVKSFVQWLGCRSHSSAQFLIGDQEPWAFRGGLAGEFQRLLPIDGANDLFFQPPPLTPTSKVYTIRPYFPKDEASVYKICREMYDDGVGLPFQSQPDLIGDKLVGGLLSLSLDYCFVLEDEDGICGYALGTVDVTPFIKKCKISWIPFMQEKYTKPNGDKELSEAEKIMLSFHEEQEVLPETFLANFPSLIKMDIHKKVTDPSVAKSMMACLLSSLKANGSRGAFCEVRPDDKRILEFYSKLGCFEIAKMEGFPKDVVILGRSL
Assay: OGA biochemical assay (inhibition of FM-GlcNAc hydrolysis, fluorescence)
Details: Enzymatic hOGA; pIC50, second table; averaged values over several runs, obtained after recalibration of the equipment
REPORTED_METRIC: IC50 (nM)
Answer in nM, number only, no unit symbol.

COMPOUND | REPORTED_METRIC | RECORDED_RESULT
Cc1cc(C(F)(F)F)cc(C)c1Nc1nccc2c1ncn2-c1ncn(C)c1C [Compound 83] | IC50 | 1170
Cc1cc(F)c(F)c(C)c1Nc1nccc2c1ncn2CC(=O)N1CCC1 [Compound 79] | IC50 | 251
Cc1cc(F)c(F)c(C)c1Nc1nccc2c1ncn2CC(=O)N(C)C [Compound 78] | IC50 | 21.4

As a next step, examine the compound that follows.
The reported value for Cc1cc(C(F)(F)F)cc(C)c1Nc1nccc2c1ncn2-c1cn(C)cn1 [Compound 82] in terms of IC50 is 170
